Kindly supply the reported growth values for the records listed here.
system: MDA-MB-468 breast; experiment: NCI-60 one-dose screen, 48 h (100 = growth as untreated, 0 = no growth, -100 = all killed); settings: 10 µM unless noted
The panel holds about 83,000 compounds, 20% with a hit somewhere; the sample as a whole holds those more often.
One number for each entry, in %.

[
  {
    "molecule": "COc1cccc(-c2nc3sccn3c2-c2ccnc(NCCN3CCCNS3(=O)=O)n2)c1",
    "numeric result": 102
  },
  {
    "molecule": "C=CC(=O)Nc1cccc(Oc2nccc(Nc3nnc(C4CC4)s3)n2)c1",
    "numeric result": 102
  },
  {
    "molecule": "Cc1ccc(C2=NNC(c3sc(Cl)nc3Cl)C2)cc1 (stereo not drawn)",
    "numeric result": 93.5
  },
  {
    "molecule": "O=S(=O)(Nc1cc(Cl)cc(Cl)c1)c1ccc(-c2cnc(C3CC3)o2)cc1",
    "numeric result": 2.06
  },
  {
    "molecule": "COCCC[C@H]1O[C@@](O)([C@H](C)[C@@H]2CC(OC)C(O)/C=C(C)/C=C(C)/C=C(\\C)C(OC3O[C@@H](C)[C@H](O)C(O)[C@@H]3O)C(C)/C=C(C)/C=C(OC)/C=C(\\C)C(=O)O2)C(OC)C(O)[C@]1(C)O[C@H]1C[C@@H](O)[C@H](O[C@H]2C[C@](C)(O)[C@H](O)C(C)O2)C(C)O1 (stereo partly drawn)",
    "numeric result": 9.61
  }
]

// for each molecule below, give its growth
1. Cc1cc(CC(=O)O)n(C)c1C(=O)c1ccc(Cl)cc1
2. O=C(Nc1ccc(F)cc1F)c1cc(F)ccc1O
3. OC(CCCCCCCCC(O)CN1CCc2ccccc2C1)CN1CCc2ccccc2C1 (stereo not drawn)

1. 101
2. -0.731
3. 127
